Origin of the recorded values: patent US11786534B2

# STUDY_SYSTEM: Ba/F3-EGFR (d746-750/T790M/C797S) (Homo sapiens, UniProt P00533, DEL746-750/T790M/C797S, cells depend on it)
# Sequence (P00533 with tags, fused parts or gaps DEL746-750/T790M/C797S): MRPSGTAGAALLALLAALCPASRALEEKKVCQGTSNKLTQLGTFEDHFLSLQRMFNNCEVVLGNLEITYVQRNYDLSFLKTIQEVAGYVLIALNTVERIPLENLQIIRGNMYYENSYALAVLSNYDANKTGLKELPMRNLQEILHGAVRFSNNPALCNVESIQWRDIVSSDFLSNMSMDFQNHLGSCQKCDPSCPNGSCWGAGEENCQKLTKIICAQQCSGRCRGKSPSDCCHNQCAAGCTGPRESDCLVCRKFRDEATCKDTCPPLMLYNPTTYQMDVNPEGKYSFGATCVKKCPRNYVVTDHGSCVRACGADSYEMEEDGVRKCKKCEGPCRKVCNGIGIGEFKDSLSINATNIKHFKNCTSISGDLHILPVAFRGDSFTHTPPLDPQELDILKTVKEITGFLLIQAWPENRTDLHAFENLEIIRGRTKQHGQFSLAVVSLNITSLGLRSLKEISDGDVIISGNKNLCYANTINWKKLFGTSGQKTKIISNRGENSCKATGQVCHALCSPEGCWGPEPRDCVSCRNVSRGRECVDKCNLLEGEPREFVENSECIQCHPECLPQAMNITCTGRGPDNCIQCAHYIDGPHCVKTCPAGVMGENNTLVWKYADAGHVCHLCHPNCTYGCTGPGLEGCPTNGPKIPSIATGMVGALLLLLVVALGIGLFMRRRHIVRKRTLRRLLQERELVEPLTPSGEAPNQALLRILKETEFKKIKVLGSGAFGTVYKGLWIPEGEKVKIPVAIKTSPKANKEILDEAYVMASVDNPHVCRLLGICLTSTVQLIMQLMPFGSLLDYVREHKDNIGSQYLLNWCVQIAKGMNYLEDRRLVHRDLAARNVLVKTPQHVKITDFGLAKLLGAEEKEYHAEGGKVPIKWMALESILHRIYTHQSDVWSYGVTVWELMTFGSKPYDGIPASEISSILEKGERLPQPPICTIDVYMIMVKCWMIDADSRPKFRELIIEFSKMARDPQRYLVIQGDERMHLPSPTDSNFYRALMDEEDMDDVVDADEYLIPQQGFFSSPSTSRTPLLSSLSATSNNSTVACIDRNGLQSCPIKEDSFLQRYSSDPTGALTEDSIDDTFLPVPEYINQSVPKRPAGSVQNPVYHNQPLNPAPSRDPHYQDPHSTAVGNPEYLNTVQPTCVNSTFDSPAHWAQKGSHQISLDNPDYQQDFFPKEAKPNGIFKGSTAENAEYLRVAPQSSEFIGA
# ASSAY_PROCEDURE: Growth inhibition of cell line expressing EGFR (d746-750/T790M/C797S)
# Type: cell-based, mouse
# MEASUREMENT_CONDITIONS: Test Example 4, Table 13; same procedures as Test Example 2; read-out: BaF3_EGFR (d746-750/T790M/C797S) IC50 value
# Procedure: Test for inhibitory activity against the growth of cell lines expressing wild-type and mutated EGFRs (in vitro) […] In each cell line, the rate of cell growth inhibition was calculated according to the equation shown below in wells to which each test compound was added at different concentrations. […]
EXPERIMENTAL_READOUT: GI50 (nM)
Dear colleague, please return just the value in nM, with no unit written.

Lookup result for C#Cc1c(-c2cnc3ccccc3c2)c2c(N)ncnc2n1C12CCC(N3CCOCC3)(CC1)C2 ; measured GI50: 59

Lookup result for C#Cc1c(-c2cnc3ccccc3c2)c2c(N)ncnc2n1C12CCC(NC(=O)[C@@H]3CN(C)CCO3)(CC1)C2 ; measured GI50: 73

Lookup result for C#Cc1c(-c2cnc3ccccc3c2)c2c(N)ncnc2n1C12CCC(NC(=O)c3ccnn3C3CC3)(CC1)C2 ; measured GI50: 31

Lookup result for C#Cc1c(-c2cnc3ccccc3c2)c2c(N)ncnc2n1C12CCC(NC(=O)c3cncc(F)c3)(CC1)C2 ; measured GI50: 44

Lookup result for C#Cc1c(-c2cnc3ccccc3c2)c2c(N)ncnc2n1C12CCC(NC(=O)c3ccno3)(CC1)C2 ; measured GI50: 30

Lookup result for C#Cc1c(-c2cnc3ccccc3c2)c2c(N)ncnc2n1C12CCC(NC(=O)c3nccs3)(CC1)C2 ; measured GI50: 162

Lookup result for C#Cc1c(-c2cnc3ccccc3c2)c2c(N)ncnc2n1C12CCC(NC(=O)c3ccccc3)(CC1)C2 ; measured GI50: 98

Lookup result for C#Cc1c(-c2cnc3ccccc3c2)c2c(N)ncnc2n1C12CCC(NC(=O)c3ccco3)(CC1)C2 ; measured GI50: 102

###

For each of the compounds below, state its GI50.
# STUDY_SYSTEM: Ba/F3-EGFR (WT) (Homo sapiens, UniProt P00533)
# Sequence (P00533 whole entry, change not shown): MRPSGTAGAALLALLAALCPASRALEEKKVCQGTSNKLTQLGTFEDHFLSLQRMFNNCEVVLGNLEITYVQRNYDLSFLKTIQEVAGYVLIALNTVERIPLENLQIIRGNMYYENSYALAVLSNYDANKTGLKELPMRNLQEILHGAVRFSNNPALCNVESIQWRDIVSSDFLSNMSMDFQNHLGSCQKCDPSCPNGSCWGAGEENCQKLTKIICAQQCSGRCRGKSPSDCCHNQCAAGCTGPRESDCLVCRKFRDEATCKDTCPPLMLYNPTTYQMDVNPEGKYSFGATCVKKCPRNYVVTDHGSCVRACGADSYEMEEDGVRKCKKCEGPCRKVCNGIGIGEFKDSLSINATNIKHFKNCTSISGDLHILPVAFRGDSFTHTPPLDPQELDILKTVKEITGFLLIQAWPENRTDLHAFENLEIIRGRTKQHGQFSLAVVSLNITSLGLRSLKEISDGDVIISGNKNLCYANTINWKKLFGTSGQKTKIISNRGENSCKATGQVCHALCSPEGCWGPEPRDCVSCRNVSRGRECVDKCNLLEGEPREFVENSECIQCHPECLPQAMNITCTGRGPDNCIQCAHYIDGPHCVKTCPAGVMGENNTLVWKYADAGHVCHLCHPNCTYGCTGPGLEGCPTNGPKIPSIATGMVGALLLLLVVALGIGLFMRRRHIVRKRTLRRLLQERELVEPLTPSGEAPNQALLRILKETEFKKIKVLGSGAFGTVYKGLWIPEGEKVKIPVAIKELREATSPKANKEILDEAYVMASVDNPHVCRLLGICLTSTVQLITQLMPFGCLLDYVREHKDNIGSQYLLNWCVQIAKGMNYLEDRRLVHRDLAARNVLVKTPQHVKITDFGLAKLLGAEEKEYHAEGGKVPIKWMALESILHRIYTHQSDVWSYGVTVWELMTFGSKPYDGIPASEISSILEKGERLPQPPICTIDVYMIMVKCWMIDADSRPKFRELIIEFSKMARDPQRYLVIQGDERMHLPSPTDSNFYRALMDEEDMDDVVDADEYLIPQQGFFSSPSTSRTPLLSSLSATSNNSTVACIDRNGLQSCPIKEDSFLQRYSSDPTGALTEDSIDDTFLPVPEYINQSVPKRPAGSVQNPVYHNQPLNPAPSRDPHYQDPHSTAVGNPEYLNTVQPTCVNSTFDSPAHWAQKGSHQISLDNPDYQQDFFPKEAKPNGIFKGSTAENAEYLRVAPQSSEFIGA
# ASSAY_PROCEDURE: Growth inhibition of cell line expressing wild-type EGFR
# Assay type: cell-based, mouse
# MEASUREMENT_CONDITIONS: Test Example 2, Table 7; culture 3 days, EGF 50 ng/ml, CellTiter-Glo; read-out: BaF3_EGFR (WT) IC50 value
# Method: Test for inhibitory activity against the growth of cell lines expressing wild-type and mutated EGFRs (in vitro) […] In each cell line, the rate of cell growth inhibition was calculated according to the equation shown below in wells to which each test compound was added at different concentrations. […]

Lookup result for C#Cc1c(-c2cnc3ccccc3c2)c2c(N)ncnc2n1C12CCC(NC(=O)c3ccnn3C)(CC1)C2 ; measured GI50: 3.79 µM

Lookup result for C=CC(=O)N1CC[C@@H](n2cc(-c3cnc4ccccc4c3)c3c(N)ncnc32)C1 [Comparative Example A, reference compound] ; measured GI50: 2.46 µM

Lookup result for C#Cc1c(-c2cnc3ccccc3c2)c2c(N)ncnc2n1C12CCC(NC(=O)c3cncnc3)(CC1)C2 ; measured GI50: 2.65 µM

Lookup result for C#Cc1c(-c2cnc3ccccc3c2)c2c(N)ncnc2n1C12CCC(NC(=O)c3ccnnc3)(CC1)C2 ; measured GI50: 3.33 µM

Lookup result for C#Cc1c(-c2cnc3ccccc3c2)c2c(N)ncnc2n1C12CCC(NC(=O)c3cnc(C)cn3)(CC1)C2 ; measured GI50: 2.97 µM

Lookup result for C#Cc1c(-c2cnc3ccccc3c2)c2c(N)ncnc2n1C12CCC(NC(=O)c3ncco3)(CC1)C2 ; measured GI50: 2.41 µM

Lookup result for C#Cc1c(-c2cnc3ccccc3c2)c2c(N)ncnc2n1C12CCC(CNC(=O)c3cnc(C)cn3)(CC1)C2 ; measured GI50: 3.5 µM

Lookup result for C#Cc1c(-c2cnc3ccccc3c2)c2c(N)ncnc2n1C12CCC(CNC(=O)c3ccnn3C)(CC1)C2 ; measured GI50: 3.6 µM

Lookup result for C#Cc1c(-c2cnc3ccccc3c2)c2c(N)ncnc2n1C12CCC(NC(=O)c3cccnc3)(CC1)C2 ; measured GI50: 3.4 µM

Lookup result for C#Cc1c(-c2cnc3ccccc3c2)c2c(N)ncnc2n1C12CCC(NC(=O)c3cccnn3)(CC1)C2 ; measured GI50: 3.07 µM

Lookup result for C#Cc1c(-c2cnc3ccccc3c2)c2c(N)ncnc2n1C12CCC(NC(=O)c3cnccn3)(CC1)C2 ; measured GI50: 2.49 µM

Lookup result for C#Cc1c(-c2cnc3ccccc3c2)c2c(N)ncnc2n1[C@@H]1CCN(C(=O)C=C)C1 [Comparative Example B, reference compound] ; measured GI50: 1.05 µM

Lookup result for C#Cc1c(-c2cnc3ccccc3c2)c2c(N)ncnc2n1C12CCC(NC(=O)c3ccncc3)(CC1)C2 ; measured GI50: 3.29 µM
